# assayedTarget: human bradykinin 1 receptor (B1R) (Homo sapiens)
# Construct: expressed in transfected cells; host or cells: CHO K1 cells
# Sequence (P46663 whole entry): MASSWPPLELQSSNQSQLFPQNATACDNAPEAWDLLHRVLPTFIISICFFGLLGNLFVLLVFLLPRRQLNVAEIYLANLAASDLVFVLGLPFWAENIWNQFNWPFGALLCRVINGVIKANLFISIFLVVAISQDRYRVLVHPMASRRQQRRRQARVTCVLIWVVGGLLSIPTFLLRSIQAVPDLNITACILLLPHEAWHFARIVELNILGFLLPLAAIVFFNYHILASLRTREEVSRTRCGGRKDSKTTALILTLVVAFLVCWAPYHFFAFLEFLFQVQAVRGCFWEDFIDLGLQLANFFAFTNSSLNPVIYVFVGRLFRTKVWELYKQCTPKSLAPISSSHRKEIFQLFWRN
# assayProcedure: Functional investigation on the human bradykinin 1 receptor (B1R), Ca2+ FLIPR assay in CHO K1 hB1R cells
# Format: cell-based
# measurementSetup: CHO-K1, B1R antagonism human; test substance 10 μM; Ca2+ FLIPR, CHO K1 hB1R cells; read-out: B1R Ant. h [10 μM] % Inhibition
Use 60% as the dividing line for inhibition at 10 µM, with the line itself on the label 1 side and lower values as label 0.

Request: I'd appreciate it if you could say whether CN1CCN(C(c2ccccc2)C2CCC(NC(=O)COCCN(C)S(=O)(=O)c3ccc(Cl)cc3Cl)CC2)CC1 (stereo not shown) has inhibition at 10 µM at least equal to 60%.
Result: label 1

Request: Given the entry CN(C)C(c1ccccc1)C1CCC(NC(=O)CNC(=O)c2nc(-c3ccc(C(C)(C)C)cc3)no2)CC1 (stereo not shown) , answer whether its inhibition at 10 µM meets or surpasses 60%.
Result: label 0

Request: Say whether CN(C)C(Cc1ccccc1)C1CCC(NC(=O)COCCN(C)S(=O)(=O)c2c(Cl)cc(Cl)cc2Cl)CC1 (stereo not shown) shows inhibition at 10 µM of 60% or more.
Result: label 1

Request: Quick check, inhibition at 10 µM >= 60%? COc1cc(C)c(S(=O)(=O)N(C)CCOCC(=O)NCC2CCC(C(c3ccccc3)N(C)C)CC2)c(C)c1C (stereo not shown)
Result: label 1

Request: Say whether COc1cc(C)c(S(=O)(=O)N2CCC(OCC(=O)NCC3CCC(C(c4cccs4)N(C)C)CC3)CC2)c(C)c1C (stereo not shown) shows inhibition at 10 µM of 60% or more.
Result: label 0

Request: Item CN(C)C(c1cccs1)C1CCC(CNC(=O)COCCN(C)S(=O)(=O)c2ccc(Cl)cc2)CC1 (stereo not shown) with inhibition at 10 µM of 60% or above?
Result: label 0

Request: Threshold query (inhibition at 10 µM >= 60%) on COc1cc(C)c(S(=O)(=O)N2CCCC(COCC(=O)NC3CCC(C(CCc4ccccc4)N4CCOCC4)CC3)C2)c(C)c1 (stereo not shown)
Result: label 0

Request: I'd appreciate it if you could say whether CN(C)C(c1ccccc1)C1CCC(NC(=O)COC2CCCN(S(=O)(=O)c3c(Cl)cc(Cl)cc3Cl)C2)CC1 (stereo not shown) has inhibition at 10 µM at least equal to 60%.
Result: label 1

Request: Assess whether reported inhibition at 10 µM for CN1CCN(C(c2ccccc2)C2CCC(NC(=O)COCC3CCCN(S(=O)(=O)c4c(Cl)cc(Cl)cc4Cl)C3)CC2)CC1 (stereo not shown) sits at 60% or higher.
Result: label 0

Request: Determine whether this molecule has inhibition at 10 µM no lower than 60%: CN(C)C(c1cccs1)C1CCC(CCNC(=O)COC2CCN(S(=O)(=O)c3ccc(F)cc3)C2)CC1 (stereo not shown)
Result: label 0

Request: Evaluate CN(C)C(c1ccccc1)C1CCC(CNC(=O)COCC2CCCN2S(=O)(=O)c2ccc(Cl)c(Cl)c2)CC1 (stereo not shown) : inhibition at 10 µM at minimum 60%?
Result: label 1

Request: Decide: is the reported value of inhibition at 10 µM for CN(C)C(c1ccccc1)C1CCC(NC(=O)COCCN(C)S(=O)(=O)c2ccc(Cl)cc2Cl)CC1 (stereo not shown) equal to or greater than 60%?
Result: label 1

Request: Check the entry COc1ccc(S(=O)(=O)N2CCCC2COCC(=O)NC2CCC(C(c3cccs3)N(C)C)CC2)cc1 (stereo not shown) : does inhibition at 10 µM equal or exceed 60%?
Result: label 0

Request: Please tell me: is the molecule Cc1ccc(S(=O)(=O)N2CCC(OCC(=O)NCC3CCC(C(c4ccccc4)N(C)C)CC3)C2)cc1 (stereo not shown) at or over 60% in terms of inhibition at 10 µM?
Result: label 0

Request: Given the entry CN(C)C(CCc1ccccc1)C1CCC(NC(=O)CCNC(=O)c2nc(-c3ccc(Cl)cc3Cl)no2)CC1 (stereo not shown) , answer whether its inhibition at 10 µM meets or surpasses 60%.
Result: label 1

Request: Is reported inhibition at 10 µM greater than or equal to 60% here: CN(C)C(c1cccs1)C1CCC(NC(=O)COC2CCN(S(=O)(=O)c3ccc(F)cc3)C2)CC1 (stereo not shown)
Result: label 0

Request: Determine whether measured inhibition at 10 µM meets or exceeds 60% for CN(C)C(c1ccccc1)C1CCC(NC(=O)COC2CCCN(S(=O)(=O)c3ccccc3)C2)CC1 (stereo not shown)
Result: label 0

Request: # check: inhibition at 10 µM of COc1ccc(-c2noc(C(=O)NCCC(=O)NC3CCC(C(CCc4ccccc4)N(C)C)CC3)n2)cc1OC (stereo not shown) is greater than or equal to 60%
Result: label 0

Request: Has CN(CCOCC(=O)NC1CCC(C(c2ccccc2)N2CCCC2)CC1)S(=O)(=O)c1c(Cl)cc(C(F)(F)F)cc1Cl (stereo not shown) a recorded inhibition at 10 µM greater than or equal to 60%?
Result: label 0

Request: Could you tell me if the measured inhibition at 10 µM of COc1ccc(S(=O)(=O)N2CCCCC2COCC(=O)NCC2CCC(C(c3cccs3)N(C)C)CC2)cc1 (stereo not shown) reaches 60% or more?
Result: label 1

Request: In plain terms: is recorded inhibition at 10 µM at least 60% for COc1ccc(S(=O)(=O)N2CCCCC2COCC(=O)NCC2CCC(C(c3cccc(F)c3)N(C)C)CC2)c(OC)c1 (stereo not shown) ?
Result: label 0

Request: State whether the measured inhibition at 10 µM reaches 60%, counting equality as reaching it, for COc1ccc(S(=O)(=O)N2Cc3ccccc3CC2COCC(=O)NC2CCC(C(c3cccs3)N(C)C)CC2)cc1 (stereo not shown)
Result: label 0

Request: Form field: inhibition at 10 µM at least 60%? Entry: CN(C)C(c1cccc(F)c1)C1CCC(CNC(=O)COCC2CCCCN2S(=O)(=O)c2ccc(Cl)c(Cl)c2)CC1 (stereo not shown)
Result: label 0

Request: Assess whether reported inhibition at 10 µM for CN(CCOCC(=O)NCC1CCC(C(CCc2ccccc2)N2CCOCC2)CC1)S(=O)(=O)c1c(Cl)cc(Cl)cc1Cl (stereo not shown) sits at 60% or higher.
Result: label 0

Request: # bool: inhibition at 10 µM of COc1cc(C)c(S(=O)(=O)N(C)CCOCC(=O)NCC2CCC(C(c3ccccc3)N3CCOCC3)CC2)c(C)c1 (stereo not shown) >= 60%
Result: label 1

Request: Is reported inhibition at 10 µM greater than or equal to 60% here: CN(CCOCC(=O)NC1CCC(C(CCc2ccccc2)N2CCOCC2)CC1)S(=O)(=O)c1c(Cl)cc(C(F)(F)F)cc1Cl (stereo not shown)
Result: label 0

Request: Can COc1cc(C)c(S(=O)(=O)N2CCN(CCOCC(=O)NC3CCC(C(c4ccccc4)N(C)C)CC3)CC2)c(C)c1C (stereo not shown) be said to have inhibition at 10 µM at or above 60%?
Result: label 1
